FYI, the data here is from the kinase profiling compilation of Christmann-Franck et al. (2016).

target: HIPK3 (human); assay: radiometric filter-binding kinase assay, Kinase HotSpot; details: compound 0.5 µM; ATP 10 µM
Listing of recorded residual activity by entry.
Quick reminder: number only, in %, skip the unit.

Take a look at these entries with their results.
1. c1ccc(-c2n[nH]c3c2oc2ccccc23)cc1 : 80.7
2. CC(C)N(CCC(=O)c1ccc2ccccc2c1)Cc1ccccc1 : 115
3. N#CC(C#N)=C(N)/C(C#N)=C/c1ccc(O)cc1 : 102
4. O=c1cc(N2CCOCC2)oc2c1ccc1ccccc12 : 107
5. CC(=O)c1ccc(N2CCOCC2)cc1O : 101

State the recorded residual activity for this entry: O=C1NC(=O)c2c1c1c3ccccc3n3c1c1c2c2ccccc2n1C1CCC3O1 49.9

What value of residual activity has been recorded for this entry: Nc1ncnc2c1c(-c1ccc(Oc3ccccc3)cc1)cn2C1CCCC1 116

Fill in: residual activity of Cc1ccc(NC2=CC(=O)c3sc(C)nc3C2=O)cc1 is ___ 101

Look up residual activity for this compound: O=C1Nc2ccc(Cl)cc2/C1=C/c1cc(Cl)c(O)c(Cl)c1 91.5
